Assay: gradient 5% acetonitrile 3 min, to 50% in 2 min, to 85% in 15 min, held 3 min, 100 µL/min
Details: column: Zorbax Extend-C18 2.1 x 50 mm; eluents: water / acetonitrile, 0.1% formic acid
propertyMeasured: RP-LC retention time (s)
Return type: number; implicit unit s.

CCC1CN2C=NC(N3CCN(C(=O)c4nn(C)c5ccccc45)CC3)=CC2=N1 (stereo not given); 636

Value of measured RP-LC retention time for the entry `O=C(CSc1nnc2ccccn12)NCc1ccco1` : 576

Value of measured RP-LC retention time for the entry `Brc1cccc(-c2nc3ccccn3c2Nc2ccc3c(c2)OCO3)c1` : 726

Value of measured RP-LC retention time for the entry `COc1ccc(NC(=O)Cn2ccc3ccc(-c4nnc(C)o4)cc32)cc1` : 937

Value of measured RP-LC retention time for the entry COc1cccc(-c2n[nH]c3c2C(c2ccc(O)cc2)N(C)C3=O)c1 (stereo not given) : 693

Value of measured RP-LC retention time for the entry `CCOc1ccccc1N1CCN(C(=O)Cn2ccc3c(c(C)nn3-c3ccccc3)c2=O)CC1` : 844

Value of measured RP-LC retention time for the entry `COc1ccc(-n2c(=O)n(C)c(=O)c3cc(C(=O)NCc4ccc(F)cc4)cnc32)cc1` : 849

Value of measured RP-LC retention time for the entry `COCCN1CCn2cc(S(=O)(=O)Nc3ccc(F)cc3Cl)cc2C1=O` : 725

Value of measured RP-LC retention time for the entry `COc1ccc(N2C=C(C(=O)N3CCOCC3)S(=O)(=O)c3ccc(F)cc32)cc1` : 778

====

Assay: gradient 5% acetonitrile 3 min, to 50% in 2 min, to 85% in 15 min, held 3 min, 100 µL/min
Conditions: column: Zorbax Extend-C18 2.1 x 50 mm; eluents: water / acetonitrile, 0.1% formic acid
Criterion: RP-LC retention time strictly under 800 s. Met: rule met. Not met: rule not met.

Worked examples follow.
Cc1ccc(CC(=O)N2CCN(c3cc(-c4cccs4)[nH]n3)CC2)cc1; rule met
O=C(NCCCN1CCN(Cc2ccccc2)CC1)c1sc2ncccc2c1-n1cccc1; rule met

Attention now turns to another entry.
stdin: Regarding `CCCCN(CCCNC(=O)C1CCN(S(=O)(=O)CC)CC1)c1ccccc1` , kindly confirm whether its RP-LC retention time is beneath 800 s.
stdout: rule met

====

Assay: gradient 5% acetonitrile 3 min, to 50% in 2 min, to 85% in 15 min, held 3 min, 100 µL/min
Settings: column: Zorbax Extend-C18 2.1 x 50 mm; eluents: water / acetonitrile, 0.1% formic acid
propertyMeasured: RP-LC retention time (s)
Return type: number; implicit unit s.

Below are worked cases with known answers.
O=C(Cc1nnc2cc(-c3nc(C4CC4)no3)ccn12)N1CCCCCC1; 685
CN(CC1CCOCC1)C(=O)NCc1cccc(F)c1; 684
Cc1ccc(Cn2c(=O)n(CCNC(=O)C3CCOC3)c3ncccc32)cc1 (stereo unspecified); 710

Value of measured RP-LC retention time for the entry CN(C)c1cccc(C(=O)NC2CCN(c3cc(-c4ccc(F)cc4)[nH]n3)C2)c1 (stereo unspecified) : 684

Value of measured RP-LC retention time for the entry `Cc1nc(N2CCCC2)c2c(C(=O)Nc3ccc(C)c(C)c3)c(C)oc2n1` : 830

Value of measured RP-LC retention time for the entry `Cc1ccc(C)c(NC(=O)Cn2c(C(C)C)nc3c(c2=O)CCN(Cc2ccccc2)C3)c1` : 734

Value of measured RP-LC retention time for the entry O=C(NC1CCCCC1N1C(=O)CSC1=O)c1ccc(=O)[nH]c1 (stereo unspecified) : 583

Value of measured RP-LC retention time for the entry `CCn1nc(C)c(CCNC(=O)c2ccc(-c3ccc4c(c3)CCN4C(C)=O)cc2)c1C` : 676

Value of measured RP-LC retention time for the entry `O=C(Nc1c(F)cc(F)cc1F)c1sc2ccccc2c1Cl` : 1030

Value of measured RP-LC retention time for the entry `CCc1ccc(NC(=O)C2CCN(S(=O)(=O)c3ccc4c(c3)S(=O)(=O)N=CN4)CC2)cc1` : 806

Value of measured RP-LC retention time for the entry `Cc1csc(-c2cc(S(=O)(=O)Nc3ccc(F)cc3Cl)c(C)s2)n1` : 1040

Value of measured RP-LC retention time for the entry Cc1ccnc(N2CCCC(C(=O)N3CCN(C)CC3)C2)n1 (stereo unspecified) : 538

Value of measured RP-LC retention time for the entry `COc1ccc(-c2nc3cnccn3c2Nc2ccc(Cl)cc2)cc1OC` : 830

Value of measured RP-LC retention time for the entry `CCCCOc1ccc(S(=O)(=O)N2CCN(c3cc(C)nc(NC4CCCCC4)n3)CC2)cc1` : 996
